target: JCV infectious virus, isolates Mad-1 and Mad-4 (VP1) (JC virus); assay: cell-based or functional assay
attribute measured: neutralization EC90

Consider the worked cases shown below.
>  <binder>
2077-10-1 (antibody, V domains shown) VH: EVQLQQSGPELVKPGASMKISCKASGYSFTGYTMNWMKQGHGKNLEWIGLFNPYNGGPNYNQKFKGKATLTVDKSSSTAYMELLSLTSEDSAVYYCARLRYYGIGDDFFDYWGQGTTLTVSS VL: DIVMTQSHKFMSTSVGDRVSITCKASQDVGTAVAWYQQKPGQSPKLLIYWASTRHTGVPDRFTGSGSGTDFTLTITNVQSEDLTDYFCQQYSSYPYTFGGGTKLEIK

>  <reported value>
> 10 µg/mL

$$$$
>  <binder>
2077-4-1 (antibody, V domains shown) VH: EVQLQQSGPELVKPGASMKISCKASGYSFTGYTMNWVKQSHGENLEWIGLFNPYNGGTRYNQKFKGKATLTVDKSSSTAYMELLSLTSEDSAVYYCARLRNYGIGDDFFDYWGQGTTLTVSS VL: DIVMTQSHKFMSTSVGDRVSITCKASQDVGTAVAWYQQKPGQSPKLLIYWASTRHTGVPDRFTGSGSGTDFTLTISNVQSEDLTDYFCQQYSNYPYTFGGGTKLEIK

>  <reported value>
3.06 µg/mL

$$$$
>  <binder>
2077-28-2 (antibody, V domains shown) VH: EVQLQQSGPELVKPGASMKISCKASGYSFTGYTMNWVKQSHGKNLEWIGLFNPYNGGATYNQRFKGKATLTVDKSSSTAYMDLLSLTSEDSAVYYCTRLRKYGIGDDFFDYWGQGTTLTVSS VL: DIVMTQSHKFMSTSVGDRVSITCKASQDVGTAVAWYQQKPGQSPKLLIYWASTRHTGVPDRFTGSGSGTDFTLTISNVQSEDLADYFCQQYSTYTYTFGGGTKLEIK

>  <reported value>
6.82 µg/mL

$$$$

Here is the next item to consider.
Input line: For 2077-26-1 (antibody, V domains shown) VH: EVQLQQSGPDLVKPGASMKLSCKASGYSFTGYTMNWVKQSHGKNLEWIGLFNPYNGGPSYNQKFKGKATLTVDKSSSTAYMELLSLTPEDSAVYYCARLRYYGIGDDFFDYWGQGTTLTVSS VL: DIVMTQSHKFMSTSVGDRVSITCKASQDVGTAVAWYQEKPGQSPKLLIYWASTRHTGVPDRFTGSGSGTDFTLTISNVQSEDLAYYFCQQYSNYPYTFGGGTKLEIK , write its neutralization EC90.
Output line: 3.2 µg/mL
